Each entry below lists one item and its recorded The normalized value in BLU units value.
Tested on: Myo5 SH3 domain
Assay: SPOT analysis of cellulose-bound peptides (WISE), Myo5 SH3 domain (Dataset S4)
Assay type: binding, Saccharomyces cerevisiae
Conditions: SPOT analysis of cellulose-bound 14-mer yeast proteome peptides, Myo5 SH3 domain; normalized value; mean where the peptide was synthesized more than once
The answer is to be given in BLU; state only the numeric part.

The following sequences have reported results that may help.
seq_string=GLLLLFVPDSPYDP metric="The normalized value in BLU units" reading=21.6
seq_string=HFLCLDPPIDPNNL metric="The normalized value in BLU units" reading=122.0
seq_string=ITDTKLFPGNPNLM metric="The normalized value in BLU units" reading=94.6

Then this sequence:
// The normalized value in BLU units lookup, key: "SLQQFYNPESPIQP" 131.1

----------
Test system: Myo5 SH3 domain
Test: SPOT analysis of cellulose-bound peptides (WISE), Myo5 SH3 domain (Dataset S4)
Assay type: binding, Saccharomyces cerevisiae
Details: SPOT analysis of cellulose-bound 14-mer yeast proteome peptides, Myo5 SH3 domain; normalized value; mean where the peptide was synthesized more than once
The label depends only on The normalized value in BLU units: 1 if it is at least 100 BLU, 0 if it is smaller.

Worked set:
seq_string=YSTNRGIPARPCKD group=1
seq_string=GPLLLTVPELPEAD group=1
seq_string=TLATLTEPKLPKSY group=0
seq_string=SVDPKNYPDAPLEG group=0

We next turn to a different sequence, shown below.
Assess whether reported The normalized value in BLU units for "DFIKLMNPTLPSLK" sits at 100 BLU or higher. 1

----------
Tested on: Myo5 SH3 domain
Assay: SPOT analysis of cellulose-bound peptides (WISE), Myo5 SH3 domain (Dataset S4)
Assay type: binding, Saccharomyces cerevisiae
Details: SPOT analysis of membrane-synthesized peptides probed with Myo5 SH3 domain; normalized value
metric: The normalized value in BLU units (SPOT analysis, Myo5 SH3) (BLU)
The answer is to be given in BLU; state only the numeric part.

# returns recorded The normalized value in BLU units (SPOT analysis, Myo5 SH3) (system: Myo5 SH3 domain) for "DIGSKKLPTGPSKK" 219.8

# returns recorded The normalized value in BLU units (SPOT analysis, Myo5 SH3) (system: Myo5 SH3 domain) for "FVFFKSLPDLPKPQ" 859.9

# returns recorded The normalized value in BLU units (SPOT analysis, Myo5 SH3) (system: Myo5 SH3 domain) for "NGMPRRIPDYPDAF" 223.3

# returns recorded The normalized value in BLU units (SPOT analysis, Myo5 SH3) (system: Myo5 SH3 domain) for "NLKTKSHPEVPRLD" 362.8

# returns recorded The normalized value in BLU units (SPOT analysis, Myo5 SH3) (system: Myo5 SH3 domain) for "MYDRKVIPRMPWHD" 357.4

----------
Each entry below lists one item and its recorded The normalized value in BLU units value.
System: Myo5 SH3 domain
Assay: SPOT analysis of cellulose-bound peptides (WISE), Myo5 SH3 domain (Dataset S4)
Type: binding, Saccharomyces cerevisiae
Details: SPOT analysis of cellulose-bound 14-mer yeast proteome peptides, Myo5 SH3 domain; normalized value; mean where the peptide was synthesized more than once
The answer is to be given in BLU; state only the numeric part.

The following sequences have reported results that may help.
seq_string=KPSLWEAPQNPPYS reading=152.4
seq_string=SENGRLTPGLPRSY reading=169.8
seq_string=RLNSFAPPPNPYAT reading=273.6
seq_string=IPTSHAPPLPPTAP reading=43593.6
seq_string=HEHNYAIPYTPATF reading=129.1
seq_string=RAAGMDVPIIPGIM reading=98.2
seq_string=RRLKKNLPSLPTPV reading=823.8
seq_string=GEFFHCSPNIPHYA reading=271.2

// The normalized value in BLU units lookup, key: "PLRERIIPILPANS" 175.1

// The normalized value in BLU units lookup, key: "IAGMLMVPESPRFL" 255.1

// The normalized value in BLU units lookup, key: "DLIHLDCPQQPNGY" 219.5

// The normalized value in BLU units lookup, key: "LPAVFSAPIRPDIV" 201.8
